# ASSAY_SYSTEM: H5-HT1aR (Homo sapiens, UniProt P08908)
# Construct: expressed in transfected cells; host or cells: CHO cells (Chinese hamster ovary), crude membranes
# Sequence (P08908 1-422): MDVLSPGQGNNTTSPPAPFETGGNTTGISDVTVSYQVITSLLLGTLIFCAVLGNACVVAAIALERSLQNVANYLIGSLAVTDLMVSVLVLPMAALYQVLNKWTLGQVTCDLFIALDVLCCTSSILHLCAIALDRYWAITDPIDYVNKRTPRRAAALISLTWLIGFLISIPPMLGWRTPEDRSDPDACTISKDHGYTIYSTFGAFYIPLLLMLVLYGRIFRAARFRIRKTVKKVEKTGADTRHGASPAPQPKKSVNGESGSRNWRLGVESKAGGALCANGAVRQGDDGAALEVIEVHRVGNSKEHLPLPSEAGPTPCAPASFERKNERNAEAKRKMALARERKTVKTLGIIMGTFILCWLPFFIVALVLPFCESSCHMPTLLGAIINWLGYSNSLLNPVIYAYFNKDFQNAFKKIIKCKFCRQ
# PROTOCOL_DESCRIPTION: Inhibition of agonist [3H]8-OH-DPAT binding (measure of receptor-G-protein coupling)
# TEST_PARAMETERS: CHO H5-HT1aR membranes, 0.5 nM [3H]8-OH-DPAT, 30 min 30°C; shallow curves; read-out: Conc. (uM) at which specific high affinity [3H]8-OH-DPAT binding is decreased by 50% (IC50)
Where no end group is shown, it is not given here.
In this section, each of the sequences is paired with its reported IC50.
Reply numerically in µM, unit not repeated.

Check out these entries, answers already filled in.
RYWAITDPID [Peptide P22]: 16
LDRYWAITDP [Peptide P21]: 15

Next item in the queue.
Give recorded IC50. WAITDPIDYV [Peptide P23]
30

----------
# ASSAY_SYSTEM: H5-HT1aR (Homo sapiens, UniProt P08908)
# Construct: expressed in transfected cells; host or cells: CHO cells (Chinese hamster ovary), crude membranes
# PROTOCOL_DESCRIPTION: Inhibition of agonist [3H]8-OH-DPAT binding (measure of receptor-G-protein coupling)
# TEST_PARAMETERS: [3H]8-OH-DPAT; if 50% is listed, the concentration is the IC50; read-out: Agonist (%) inhibition: concentration giving 50% (IC50)
Where no end group is shown, it is not given here.
READOUT_NAME: IC50 (µM)
Entry rule: numbers only, all in µM.

Look up and state reported IC50 for VKKVEKTGAD [Peptide P13]
15
